Tested on: rice (Oryza sativa)
Assay: Test B flood test
Type: in vivo
Details: Rate 250 g/ha, Postemergence (flood test species)
Measurement Name: Plant response rating, Rice
Give bare numbers.

# annotated cases, reported Plant response rating, Rice shown
Cc1cnc(-c2ccc(F)cc2F)nc1Cc1cccc(C#N)c1 [Compound 34] ... 1
CCc1cnc(-n2cnc(C(F)(F)F)c2)nc1C(=O)c1cccc(OC(F)(F)F)c1 [Compound 71] ... 2
Cc1cnc(-c2ccc(Cl)c(Cl)c2)nc1Cc1cccc(C#N)c1 [Compound 38] ... 0
Cc1cnc(-n2ccc(C(F)(F)C(F)(F)F)n2)nc1C(=O)c1cccc(C(F)(F)F)c1 [Compound 68] ... 3
Cc1cnc(-c2ccc(Cl)cc2F)nc1Cc1cccc(C(F)(F)F)c1 [Compound 29] ... 3
CCc1cnc(-n2ccc(C(F)(F)F)n2)nc1Cc1cccc(OC(F)(F)F)c1 [Compound 47] ... 6

Would you be so kind as to report Plant response rating, Rice for each listed record?
1. Cc1cnc(-c2ccc(C(F)(F)F)cc2)nc1C(=O)c1ccc(C(F)(F)F)cc1 [Compound 74]
2. Cc1cnc(-n2ccc(C(F)(F)C(F)(F)F)n2)nc1C(=O)c1cccc(OC(F)(F)F)c1 [Compound 62]
3. Cc1cnc(-c2ccc(Cl)cc2)nc1Cn1ccc(C(F)(F)F)n1 [Compound 6]
4. Cc1cnc(-c2ccc(C(F)(F)F)cc2)nc1C(Cl)c1cccc(C(F)(F)F)c1 (racemic) [Compound 21]
5. Cc1cnc(-c2ccc(F)c(Cl)c2)nc1Cc1cccc(C(F)(F)F)c1 [Compound 25]

[reply]
[0, 0, 2, 5, 5]

Would you be so kind as to report Plant response rating, Rice for each listed record?
1. Cc1cnc(-c2ccc(C(F)(F)F)cc2)nc1Cn1nc(C(F)(F)F)cc1C [Compound 13]
2. Cc1cnc(-n2ccc(C(F)(F)F)n2)nc1Cn1ccc(C(F)(F)F)n1 [Compound 52]
3. COc1cnc(-c2ccc(C(F)(F)F)cc2)nc1Cc1cccc(C(F)(F)F)c1 [Compound 23]
4. Cc1cnc(-n2ccc(C(F)(F)F)n2)nc1C(=O)c1ccc(C(F)(F)F)cc1 [Compound 65]
5. COc1cnc(-n2ccc(C(F)(F)F)n2)nc1Cc1cccc(C(F)(F)F)c1 [Compound 45]
6. COc1cnc(-n2ccc(C(F)(F)F)n2)nc1C(=O)c1cccc(C(F)(F)F)c1 [Compound 60]
7. Cc1cnc(-c2ccc(Cl)cc2F)nc1Cc1cccc(C#N)c1 [Compound 35]
8. Cc1cnc(-c2ccc(C(F)(F)F)cc2)nc1Cn1cc(I)cn1 [Compound 12]

[reply]
[0, 7, 5, 0, 0, 1, 1, 3]
